Molecular target: FLNA pentapeptide of SEQ ID NO: 1 (Bn-VAKGL) (Homo sapiens)
Assay: FITC-NLX-based FLNA screening assay (inhibition of FITC-naloxone binding to Bn-VAKGL on streptavidin plates)
Settings: FLNA-binding compound 0.1 μM; 10 nM FITC-NLX; read-out: Percent Binding Inhibition
The entries below are paired with their reported inhibition at 0.1 µM.
OUTCOME_MEASURE: inhibition at 0.1 µM (%)

| COMPOUND | OUTCOME_MEASURE | OBSERVED |
| --- | --- | --- |
| COc1ccc(S(=O)(=O)N2CCCC3(C2)OCCN3S(=O)(=O)c2ccc(OC)cc2)cc1 (stereo not drawn) [Compound C0145M] | inhibition at 0.1 µM | 53.7 |
| CCCCN1CCC2(CC1)OCCN2S(=O)(=O)c1ccc(C(C)=O)cc1 [Compound C0101M] | inhibition at 0.1 µM | 56.4 |
| CC1CCN(CC(O)COC2CC(C)CCC2C(C)C)CC1 (stereo not drawn) | inhibition at 0.1 µM | 43.5 |
| CC(=O)c1ccc(S(=O)(=O)N2CCC3(CC2)NCCO3)cc1 | inhibition at 0.1 µM | 34.9 |
| CC1CCC(C(C)C)C(OCC(O)CN2CCCC2=O)C1 (stereo not drawn) | inhibition at 0.1 µM | 45.5 |
| CC(=O)c1ccc(OCC(O)CN2CC(C)OC(C)C2)cc1 (stereo not drawn) | inhibition at 0.1 µM | 36.9 |

----------
Biological target: FLNA pentapeptide of SEQ ID NO: 1 (Bn-VAKGL) (Homo sapiens)
Assay: FITC-NLX-based FLNA screening assay (inhibition of FITC-naloxone binding to Bn-VAKGL on streptavidin plates)
Conditions: read-out: Percent Binding Inhibition, FLNA-binding compound 1 μM; 10 nM FITC-NLX
The entries below are paired with their reported inhibition at 1 µM.
OUTCOME_MEASURE: inhibition at 1 µM (%)

| COMPOUND | OBSERVED |
| --- | --- |
| Cc1cccc(S(=O)(=O)N2CCC3(CC2)OCCN3S(=O)(=O)c2cccc(C)c2)c1 | 40 |
| COc1ccc(NC(=O)N2CCC3(CC2)OCCN3S(=O)(=O)c2ccc(OC)cc2)cc1 | 51.2 |
| O=C(c1ccc([N+](=O)[O-])cc1)N1CCC2(CC1)OCCN2C(=O)c1ccc([N+](=O)[O-])cc1 | 55.3 |
| CN1CCC2(CC1)NCC(=O)N2Cc1ccccc1 [Compound C0105M] | 68.8 |
| CC1CCC(C(C)C)C(OCC(O)Cn2ccc3ccccc32)C1 (centres unmarked) | 57.6 |

----------
Tested on: mu opiate receptor (MOR)
Assay: MOR agonist activity using [35S]GTPγS binding assay in striatal membranes
Type: biochemical
Conditions: 1 μM compound + BFNA relative to DAMGO + BFNA

| COMPOUND | SYSTEM_TESTED | % DAMGO + BFNA (%) |
| --- | --- | --- |
| CC1CN(CC(O)COc2cccc(N(C)C)c2)CC(C)O1 (centres unmarked) | mu opiate receptor (MOR) | 121.1 |
| COc1ccc(N2CCN(CC(O)COC3CC(C)CCC3C(C)C)CC2)c(OC)c1 (centres unmarked) | mu opiate receptor (MOR) | 461.9 |
| CC1CCN(CC(O)COC2CC(C)CCC2C(C)C)CC1 (centres unmarked) | mu opiate receptor (MOR) | 68.7 |
| CC1CCC(C(C)C)C(OCC(O)CN2CCCC2=O)C1 (centres unmarked) | mu opiate receptor (MOR) | 119.9 |
| CC1CCC(C(C)C)C(OCC(O)CN2CCCCC2C)C1 (centres unmarked) | mu opiate receptor (MOR) | 152.5 |

----------
The entries below are paired with their reported % DAMGO (1 μM).
System: mu opiate receptor (MOR)
Experiment: MOR agonist activity using [35S]GTPγS binding assay in striatal membranes
Type: biochemical
Conditions: Series C-2; 1 μM compound, relative to DAMGO
OUTCOME_MEASURE: % DAMGO (1 μM) (%)

| COMPOUND | SYSTEM_TESTED | OUTCOME_MEASURE | OBSERVED |
| --- | --- | --- | --- |
| CC(=O)c1ccc(S(=O)(=O)N2CC(CN(C)C)OC23CCN(CC2CC2)CC3)cc1 (stereo not drawn) [Compound C0128M] | mu opiate receptor (MOR) | % DAMGO (1 μM) | 115.2 |
| CS(=O)(=O)c1ccc(S(=O)(=O)N2CCOC23CCN(CC2CC2)CC3)cc1 [Compound C0126M] | mu opiate receptor (MOR) | % DAMGO (1 μM) | 119.3 |
| C[C@@H](NC(=O)[C@@H](N)Cc1ccc(O)cc1)C(=O)NCC(=O)N(C)[C@@H](Cc1ccccc1)C(=O)NCCO [DAMGO, [D-Ala2, N-MePhe4, Gly-ol]-enkephalin, reference compound] | mu opiate receptor (MOR) | % DAMGO (1 μM) | 100 |
| CCCCN1CCC2(CC1)OCCN2S(=O)(=O)c1ccc(C(C)=O)cc1 [Compound C0101M] | mu opiate receptor (MOR) | % DAMGO (1 μM) | 123.4 |
| COc1ccc(S(=O)(=O)N2CCOC23CCN(C(=O)OC(C)(C)C)CC3)cc1 | mu opiate receptor (MOR) | % DAMGO (1 μM) | 110.9 |
| O=C1CN(C2CCc3ccccc3C2)C2(CCN(S(=O)(=O)c3ccccc3)CC2)N1 (stereo not drawn) [C0136M(P5)] | mu opiate receptor (MOR) | % DAMGO (1 μM) | 95.6 |
| CCc1ccc(S(=O)(=O)N2CCOC23CCN(CC2CC2)CC3)cc1 [Compound C0135M] | mu opiate receptor (MOR) | % DAMGO (1 μM) | 124.9 |
| CC(=O)c1ccc(S(=O)(=O)N2C(Cc3c[nH]cn3)C(=O)NC23CCNCC3)cc1 (stereo not drawn) [Compound C0119M] | mu opiate receptor (MOR) | % DAMGO (1 μM) | 83.0 |
| COc1ccc(NC(=O)N2CCC3(CC2)NCCO3)cc1 [Compound C0151M-2] | mu opiate receptor (MOR) | % DAMGO (1 μM) | 122.0 |

----------
Tested on: mu opiate receptor (MOR)
Test: MOR agonist activity using [35S]GTPγS binding assay in striatal membranes
Assay type: biochemical
Settings: Series B; 1 μM compound + β-FNA, relative to DAMGO + BFNA
OUTCOME_MEASURE: % DAMGO + BFNA

| COMPOUND | SYSTEM_TESTED | OUTCOME_MEASURE | OBSERVED |
| --- | --- | --- | --- |
| COc1ccc(C(=O)CC2c3c(cc4c(c3OC)OCO4)CC[N+]2(C)C)cc1 (stereo not shown) | mu opiate receptor (MOR) | % DAMGO + BFNA | 58.2% |
| CCOc1ccc(C(=O)CC2c3c(cc4c(c3OC)OCO4)CC[N+]2(C)C)cc1F (stereo not shown) | mu opiate receptor (MOR) | % DAMGO + BFNA | 47.8% |
| COc1ccc(CC(=O)CC2c3c(cc4c(c3OC)OCO4)CC[N+]2(C)C)c(OC)c1 (stereo not shown) | mu opiate receptor (MOR) | % DAMGO + BFNA | 40.1% |
| COc1c2c(cc3c1C(CC(=O)Cc1ccc(C#N)cc1)[N+](C)(C)CC3)OCO2 (stereo not shown) | mu opiate receptor (MOR) | % DAMGO + BFNA | 278.5% |
| COc1cccc(CCC(=O)CC2c3c(cc4c(c3OC)OCO4)CC[N+]2(C)C)c1 (stereo not shown) | mu opiate receptor (MOR) | % DAMGO + BFNA | 80.2% |
| COc1ccc(C(=O)CC2c3c(cc4c(c3OC)OCO4)CC[N+]2(C)C)cc1C (stereo not shown) | mu opiate receptor (MOR) | % DAMGO + BFNA | 123.6% |
| COc1c2c(cc3c1C(CC(=O)/C=C/c1ccc(Cl)cc1)[N+](C)(C)CC3)OCO2 (stereo not shown) | mu opiate receptor (MOR) | % DAMGO + BFNA | 123.3% |

----------
The entries below are paired with their reported % DAMGO (0.1 μM).
Tested on: mu opiate receptor (MOR)
Assay: MOR agonist activity using [35S]GTPγS binding assay in striatal membranes
Format: biochemical
Conditions: Series B; 0.1 μM compound, relative to DAMGO
OUTCOME_MEASURE: % DAMGO (0.1 μM)

| MOLECULE | OUTCOME_MEASURE | OBSERVED |
| --- | --- | --- |
| COc1ccccc1CC(=O)CC1c2c(cc3c(c2OC)OCO3)CC[N+]1(C)C (stereo not drawn) | % DAMGO (0.1 μM) | 66.9% |
| COc1ccc(CCC(=O)CC2c3c(cc4c(c3OC)OCO4)CCN2C)cc1 (stereo not drawn) | % DAMGO (0.1 μM) | 106.3% |
| COc1c2c(cc3c1C(CC(=O)Cc1ccccc1F)[N+](C)(C)CC3)OCO2 (stereo not drawn) | % DAMGO (0.1 μM) | 91.8% |
